meta.source: ChEMBL document CHEMBL1135869

assay: Inhibition of competitive binding to cyclin-A kinase complex
pIC50: −log10 of the molar value. Starred links: 1 amine or outer side, 2 acyl side, 3 side chain; linkers in the order of their positions; H or OH if unused. Non-standard residues stand in square brackets, D forms with d. Residues, ends and D or L forms follow the SMILES beside them. X2 = O=C(/C(=C/c1ccccc1)N[*:1])[*:2]
Assay Metric: pIC50

[I] CC[C@H](C)[C@H](NC(=O)[C@H](CC(C)C)NC(=O)[C@H](CCCN=C(N)N)NC(=O)[C@H](CCCN=C(N)N)NC(=O)[C@H](CCCCN)NC(=O)[C@H](C)NC(=O)[C@@H](N)Cc1c[nH]cn1)C(=O)N/C(=C\c1ccccc1)C(=O)O (H-HAKRRLI[X2]-OH)
[II] CC[C@H](C)[C@H](NC(=O)[C@H](CC(C)C)NC(=O)[C@H](CCCN=C(N)N)NC(=O)[C@H](CCCN=C(N)N)NC(=O)[C@H](CCCCN)NC(=O)[C@H](CO)NC(=O)[C@@H](N)Cc1c[nH]cn1)C(=O)N[C@@H](Cc1ccccc1)C(N)=O
Input line: # compare pIC50 for I vs II ; return the one with the smaller value // return label of chosen record
Output line: II
